Source: patent US11840686B2

tested on: human PKK mRNA; test: Dose-dependent antisense inhibition of human PKK in HepaRG cells, 0.19-5.00 uM (Example 5); format: cell-based; details: 4 point dose response, HepaRG cells; Table 40
Strand notation (5' to 3'): a small letter for the sugar, then the base; units joined by * are phosphorothioate-linked, units joined directly phosphodiester-linked; [ ] holds rarer units or linkages, { } end groups; capitals alone tell only the bases. e = 2'-O-(2-methoxyethyl) (MOE); [5mC] = 5-methylcytosine; d = 2'-deoxy (DNA)
value.kind: pIC50
Numbers only, as −log10 of the molar value.

547277 (antisense e[5mC]*eA*e[5mC]*eA*eA*dT*dT*dG*d[5mC]*dT*dT*d[5mC]*dT*dT*dG*eG*eA*eG*eG*eT) [compound 547277]; 5.55
547520 (antisense eT*e[5mC]*eA*eG*e[5mC]*d[5mC]*dA*dG*dA*d[5mC]*dA*dT*dT*dG*dT*e[5mC]*e[5mC]*eT*e[5mC]*eA) [compound 547520]; 5.96

Inquiry: Give recorded pIC50. 531231 (eT*eA*eT*e[5mC]*eA*d[5mC]*dT*dG*dT*dA*d[5mC]*dT*dA*dG*dT*eT*eT*e[5mC]*e[5mC]*eT) [compound 531231]
Reply text: 6.10
